Test system: Aβ plaques on AD sections
Assay: Assay 1 (fluorescence based assay): direct staining of human Alzheimer's disease brain sections
Type: binding
Design: key: − (No); +/− (very weak); + (weak); ++ (good); +++ (strong)
Conditions: staining intensity; compound 100 μM, frozen amygdala sections, AD Braak stage V-VI
measured endpoint: Staining of Aβ plaques on AD sections

Previously resolved entries follow.
• CNc1ccc(-c2cc3ccc(Nc4ccc(OCCF)cc4)nc3s2)cc1 = +++
• CNc1ccc(-c2ccc3cc(-c4ccc(OCCF)cc4)sc3n2)cc1 = ++
• COc1cccc(/C=C/c2ccc3cc(-c4cccnc4)sc3n2)c1 = ++
• COc1ccc(/C=C/c2ccc3cc(-c4cccnc4)sc3n2)cc1 = +++
• c1cncc(-c2cc3ncc(-c4ccc(N5CCCC5)nc4)cc3s2)c1 = +++
• F[C@@H]1CCN(c2ccc(-c3cc4nc(-c5cccnc5)ccc4s3)cn2)C1 = +

Which Staining of Aβ plaques on AD sections value belongs to FCCOc1ccc(-c2cc3ccc(-c4ccc(F)nc4)nc3s2)cc1 ?
++

----------
Test system: Aβ plaques on AD sections
Assay: Assay 1 (fluorescence based assay): direct staining of human Alzheimer's disease brain sections
Type: binding
Parameters: key: − (No); +/− (very weak); + (weak); ++ (good); +++ (strong)
Conditions: staining intensity; compound 100 μM, frozen amygdala sections, AD Braak stage V-VI
measured endpoint: Staining of Aβ plaques on AD sections

• COc1ccc(/C=C/c2ccc3cc(-c4ccc(OCCF)cc4)sc3n2)cc1 = +++
• Cn1cc(-c2ccc3sc(-c4ccc(N5CCCC5)nc4F)nc3c2)cn1 = +
• CN(C)c1ccc(-c2cc3ccc(-c4ccc(F)nc4)nc3s2)cn1 = +++
• O=C1COCCN1c1ccc2nc(-c3ccc(N4CC[C@@H](F)C4)nc3)sc2c1 = +

Field: next compound
Which Staining of Aβ plaques on AD sections value belongs to FCCNc1ccc(-c2ccc3cc(-c4cccnc4)sc3n2)cn1 ?
++

----------
System: Aβ plaques on AD sections
Assay: Assay 1 (fluorescence based assay): direct staining of human Alzheimer's disease brain sections
Type: binding
Set-up: key: − (No); +/− (very weak); + (weak); ++ (good); +++ (strong)
Conditions: staining intensity; compound 100 μM, frozen amygdala sections, AD Braak stage V-VI
measured endpoint: Staining of Aβ plaques on AD sections

• Fc1ccncc1-c1ccc2sc(-c3ccc(N4CCCC4)nc3)nc2c1 = +
• FC1CCN(c2ccc(-c3ccc4cc(-c5cccnc5)sc4n3)cn2)CC1 = +
• FCCOc1cccc(Nc2ccc3cc(-c4cccnc4)sc3n2)c1 = +
• CNc1ccc(-c2cc3ccc(-c4ccc(OCCF)cc4)nc3s2)cc1 = +++
• c1cncc(-c2cc3ccc(-c4ccc(N5CCOCC5)cc4)nc3s2)c1 = +

Which Staining of Aβ plaques on AD sections value belongs to Cn1cc(-c2ccc3sc(-c4ccc(N5CCCC5)nc4)nc3c2)cn1 ?
−

Which Staining of Aβ plaques on AD sections value belongs to CN(CCF)c1ccc(-c2ccc3cc(-c4cccnc4)sc3n2)cn1 ?
+

----------
Molecular target: aSyn aggregates on PD sections (Homo sapiens, UniProt P37840)
Construct: 20 μm frozen sections from amygdala were purchased from an external provider (Tissue Solutions Ltd.); tissue Tissue Solutions Ltd; host or cells: human PD amygdala, frozen sections, Braak stage V-VI
Assay: Assay 1 (fluorescence based assay): direct staining of human Parkinson's disease brain sections
Assay type: binding
Design: key: − (No); +/− (very weak); + (weak); ++ (good); +++ (strong)
Details: staining intensity; compound 100 μM, frozen amygdala sections, PD Braak stage V-VI
measured endpoint: Staining of aSyn aggregates on PD sections

- F[C@H]1CCN(c2ccc(-c3ccc4cc(-c5cccnc5)sc4n3)cn2)C1: +
- CNc1ccc(-c2ccc3cc(-c4cccnc4)sc3n2)cn1: +++
- FCCOc1cccc(Nc2ccc3cc(-c4cccnc4)sc3n2)c1: +
- N#Cc1ccc2sc(-c3ccc(N4CCCC4)nc3F)nc2n1: ++
- OCCOC1CCN(c2ccc3cc(-c4cccnc4)sc3n2)CC1: ++

Which Staining of aSyn aggregates on PD sections value belongs to F[C@@H]1CCCN(c2ccc(-c3nc4nc(-c5cncs5)ccc4s3)cn2)C1 ?
++

Which Staining of aSyn aggregates on PD sections value belongs to F[C@H]1CCCN(c2ccc(-c3nc4ncc(-c5cccnc5)cc4s3)cn2)C1 ?
++

Which Staining of aSyn aggregates on PD sections value belongs to O=C1c2sc(-c3ccc(N4CCCC4)nc3)nc2CCN1c1cccnc1 ?
+++

Which Staining of aSyn aggregates on PD sections value belongs to Cn1cc(-c2ccc3sc(-c4ccc(N5CCCC5)nc4F)nc3n2)cn1 ?
++

Which Staining of aSyn aggregates on PD sections value belongs to O=C1CN(CCF)CCN1c1ccc2nc(-c3ccc(N4CCCC4)nc3)sc2c1 ?
++

Which Staining of aSyn aggregates on PD sections value belongs to F[C@@H]1CCN(c2ccc(-c3cc4nc(-c5cccnc5)ccc4s3)cn2)C1 ?
+

Which Staining of aSyn aggregates on PD sections value belongs to CN(C)c1ccc(-c2cc3ccc(-c4ccc(F)nc4)nc3s2)cn1 ?
+++

Which Staining of aSyn aggregates on PD sections value belongs to CNc1ccc(-c2cc3ccc(-c4ccc(OCCF)cc4)nc3s2)cc1 ?
+

Which Staining of aSyn aggregates on PD sections value belongs to COc1ccc(/C=C/c2ccc3cc(-c4ccc(OCCF)cc4)sc3n2)cc1 ?
++

Which Staining of aSyn aggregates on PD sections value belongs to F[C@@H]1CCCN(c2ccc(-c3nc4ncc(N5CCOCC5)cc4s3)cn2)C1 ?
+

Which Staining of aSyn aggregates on PD sections value belongs to c1n[nH]cc1-c1cc2nc(-c3ccc(N4CCCC4)nc3)sc2cn1 ?
++

Which Staining of aSyn aggregates on PD sections value belongs to O=C1c2sc(-c3ccc(N4CC[C@@H](F)C4)nc3)nc2CCN1c1cccnc1 ?
++

Which Staining of aSyn aggregates on PD sections value belongs to FCCOc1ccc(Nc2ccc3cc(-c4cccnc4)sc3n2)cc1 ?
++

Which Staining of aSyn aggregates on PD sections value belongs to Cn1cc(-c2ccc3sc(-c4ccc(N5CCCC5)nc4)nc3c2)cn1 ?
+

Which Staining of aSyn aggregates on PD sections value belongs to COc1cccc(/C=C/c2ccc3cc(-c4cccnc4)sc3n2)c1 ?
++

Which Staining of aSyn aggregates on PD sections value belongs to CN(C)c1ccc(-c2ccc3cc(-c4ccc(N(C)C)nc4)sc3n2)cn1 ?
++

Which Staining of aSyn aggregates on PD sections value belongs to c1cncc(-c2cc3ccc(-c4ccc(N5CCOCC5)cc4)nc3s2)c1 ?
+++

Which Staining of aSyn aggregates on PD sections value belongs to O=C1COCCN1c1ccc2nc(-c3ccc(N4CC[C@@H](F)C4)nc3)sc2c1 ?
+++

----------
Biological target: aSyn aggregates on PD sections (Homo sapiens)
Construct: 20 μm frozen sections from amygdala were purchased from an external provider (Tissue Solutions Ltd.); tissue Tissue Solutions Ltd; host or cells: human PD amygdala, frozen sections, Braak stage V-VI
Test: Assay 1 (fluorescence based assay): direct staining of human Parkinson's disease brain sections
Format: binding
Design: key: − (No); +/− (very weak); + (weak); ++ (good); +++ (strong)
Conditions: staining intensity; compound 100 μM, frozen amygdala sections, PD Braak stage V-VI
measured endpoint: Staining of aSyn aggregates on PD sections

Previously resolved entries follow.
* Cn1cc(-c2ccc3sc(-c4ccc(N5CC[C@@H](F)C5)nc4)cc3n2)cn1 | ++
* Fc1nc(N2CCCC2)ccc1-c1nc2nc(-c3cn[nH]c3)ccc2s1 | +++
* Cn1cc(-c2ccc3sc(-c4ccc(N5CCCC5)nc4F)nc3c2)cn1 | +
* F[C@H]1CCCN(c2ccc(-c3nc4nc(-c5cn[nH]c5)ccc4s3)cn2)C1 | +++
* FCCOC1CCN(c2cc3nc(-c4ccc(N5CCCC5)nc4)sc3cn2)CC1 | +

Field: next compound
Which Staining of aSyn aggregates on PD sections value belongs to CN(C)c1ccc(-c2cc3ccc(-c4ccc(N5CCC(F)CC5)nc4)nc3s2)cn1 ?
++

----------
Target: aSyn aggregates on PD sections (Homo sapiens)
Construct: 20 μm frozen sections from amygdala were purchased from an external provider (Tissue Solutions Ltd.); tissue Tissue Solutions Ltd; host or cells: human PD amygdala, frozen sections, Braak stage V-VI
Assay: Assay 1 (fluorescence based assay): direct staining of human Parkinson's disease brain sections
Type: binding
Parameters: key: − (No); +/− (very weak); + (weak); ++ (good); +++ (strong)
Conditions: staining intensity; compound 100 μM, frozen amygdala sections, PD Braak stage V-VI
measured endpoint: Staining of aSyn aggregates on PD sections

* CN1CCN(c2ccc3nc(-c4ccc(N5CC[C@H](F)C5)nc4)sc3c2)C(=O)C1 | +
* c1cncc(-c2ccc3nc(-c4ccc(N5CCCC5)nc4)sc3c2)c1 | +++
* CN(C)c1ncc(-c2ccc3cc(-c4cccnc4)sc3n2)cn1 | +
